A collection of molecules and their measured Ki
- Tested on: GABA-A receptor; alpha-1/beta-3/gamma-2 (Homo sapiens, UniProt P14867+P18507+P28472)
- Sequence (P14867 whole entry): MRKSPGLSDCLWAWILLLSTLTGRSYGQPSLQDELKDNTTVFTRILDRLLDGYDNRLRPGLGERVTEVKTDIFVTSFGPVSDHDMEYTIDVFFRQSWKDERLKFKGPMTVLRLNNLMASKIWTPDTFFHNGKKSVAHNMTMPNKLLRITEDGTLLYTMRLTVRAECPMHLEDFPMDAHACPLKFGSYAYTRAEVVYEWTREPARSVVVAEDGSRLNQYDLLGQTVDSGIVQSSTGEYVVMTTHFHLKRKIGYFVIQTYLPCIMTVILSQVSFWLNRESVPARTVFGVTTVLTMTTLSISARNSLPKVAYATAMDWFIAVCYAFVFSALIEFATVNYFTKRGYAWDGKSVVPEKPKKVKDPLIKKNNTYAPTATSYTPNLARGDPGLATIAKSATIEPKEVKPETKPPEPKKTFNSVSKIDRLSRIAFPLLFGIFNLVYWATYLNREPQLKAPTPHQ
- Sequence (P18507 whole entry): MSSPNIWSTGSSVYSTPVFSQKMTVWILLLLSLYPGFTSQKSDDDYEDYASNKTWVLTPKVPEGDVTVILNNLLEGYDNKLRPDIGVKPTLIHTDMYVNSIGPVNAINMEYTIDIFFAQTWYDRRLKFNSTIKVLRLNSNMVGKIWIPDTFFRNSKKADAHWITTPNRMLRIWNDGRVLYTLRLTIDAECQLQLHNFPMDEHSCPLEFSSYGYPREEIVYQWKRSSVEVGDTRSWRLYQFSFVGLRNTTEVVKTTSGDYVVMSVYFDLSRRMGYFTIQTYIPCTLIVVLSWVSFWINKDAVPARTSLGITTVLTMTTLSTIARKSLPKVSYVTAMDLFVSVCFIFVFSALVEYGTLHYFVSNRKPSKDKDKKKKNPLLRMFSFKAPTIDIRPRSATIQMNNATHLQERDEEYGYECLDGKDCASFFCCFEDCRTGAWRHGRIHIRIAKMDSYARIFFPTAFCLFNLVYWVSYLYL
- Sequence (P28472 whole entry): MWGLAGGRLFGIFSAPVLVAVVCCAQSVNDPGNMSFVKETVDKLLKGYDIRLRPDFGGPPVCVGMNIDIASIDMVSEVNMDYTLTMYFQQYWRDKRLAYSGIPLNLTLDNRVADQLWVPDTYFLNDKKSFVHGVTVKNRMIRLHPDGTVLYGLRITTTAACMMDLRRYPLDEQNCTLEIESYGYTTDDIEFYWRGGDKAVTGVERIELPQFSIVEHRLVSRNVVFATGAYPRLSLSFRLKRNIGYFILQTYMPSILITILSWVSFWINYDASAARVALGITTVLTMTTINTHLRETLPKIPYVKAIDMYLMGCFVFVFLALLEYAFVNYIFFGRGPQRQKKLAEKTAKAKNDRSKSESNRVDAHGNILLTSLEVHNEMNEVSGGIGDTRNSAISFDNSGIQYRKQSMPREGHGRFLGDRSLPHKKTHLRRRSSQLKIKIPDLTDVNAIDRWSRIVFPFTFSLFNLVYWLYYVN
- Experiment notes: Binding affinity measured using LtK- cell membranes expressing GABA alpha-1-beta-3-gamma-2 receptor
Value type: Ki

CCCCCCCCOc1ccc2[nH]c3cnc(C(=O)OCC)c(COC)c3c2c1	> 1 µM
CCOc1[nH]cc2nc3cc(OC)c(OC)cc3c-2c1CC	> 0.3 µM
CCOC(=O)c1ncc2c(c1CC)c1ccccc1n2C	> 1 µM
CCCCCCCCOc1ccc2c(c1)c1c(COC)c(C(=O)OCC)ncc1n2C	> 3 µM
CCc1c(OC)[nH]cc2nc3cc(OC)c(OC)cc3c1-2	> 0.3 µM

Source: ChEMBL document CHEMBL1131013
